target: human MER (528-end) (Homo sapiens (Human), UniProt Q12866)
Sequence (Q12866 528-999 limits assumed): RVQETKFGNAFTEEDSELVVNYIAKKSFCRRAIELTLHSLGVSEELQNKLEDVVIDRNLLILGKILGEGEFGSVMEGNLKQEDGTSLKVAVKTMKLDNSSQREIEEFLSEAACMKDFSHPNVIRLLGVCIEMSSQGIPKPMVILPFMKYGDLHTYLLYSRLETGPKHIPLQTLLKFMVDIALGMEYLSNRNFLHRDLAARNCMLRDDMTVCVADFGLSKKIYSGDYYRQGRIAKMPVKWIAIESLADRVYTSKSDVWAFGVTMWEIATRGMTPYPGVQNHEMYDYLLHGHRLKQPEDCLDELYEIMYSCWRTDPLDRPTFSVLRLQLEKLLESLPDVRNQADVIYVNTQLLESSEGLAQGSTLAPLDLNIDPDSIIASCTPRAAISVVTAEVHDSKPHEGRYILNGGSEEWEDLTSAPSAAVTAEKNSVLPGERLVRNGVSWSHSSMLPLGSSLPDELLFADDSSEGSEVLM
pIC50: −log10 of the molar value.
Assay endpoint: pIC50

Example cases with answers are listed next.
Molecule: Cn1cc(-c2cncc(C(=O)N[C@@H]3CCN(C(=O)Nc4cc(Cl)cc(Cl)c4)C3)c2)cn1 [Example 22]
pIC50: < 6.00

Molecule: Nc1ncc(-c2cnn(C3CCNCC3)c2)cc1C(=O)N[C@@H]1CCN(Cc2ccc([N+](=O)[O-])cc2)C1 [Example 156]
pIC50: < 6.00

Molecule: Cn1cc(-c2cnc(N)c(C(=O)N[C@@H]3CCN(C(=O)Oc4cccc(-c5ccc(CNC[C@@H]6CCCN6)cc5)c4)C3)c2)cn1 [Example 312]
pIC50: 6.00 to 7.00

Molecule: Cn1cc(-c2cnc(N)c(C(=O)N[C@@H]3CCN(C(=O)c4ccc(-c5ccc6c(ccn6C)c5)cc4)C3)c2)cn1 [Example 756]
pIC50: 6.00 to 7.00

Molecule: Cc1cc(C(=O)N2CC[C@@H](NC(=O)c3cc(-c4cnn(C)c4)cnc3N)C2)ccc1-c1ccc(CN2CCN(C)CC2)cc1 [Example 392]
pIC50: 6.00 to 7.00

# batch size: 2; output pIC50 per entry
1. Cn1cc(-c2cnc(N)c(C(=O)N[C@@H]3CCN(C(=O)OC4CCCCC4)C3)c2)cn1 [Example 66]
2. Cn1cc(-c2cnc(N)c(C(=O)N[C@@H]3CCN(C(=O)Nc4cccc(-c5ccccc5)c4)C3)c2)cn1 [Example 23]

< 6.00
6.00 to 7.00

# batch size: 7; output pIC50 per entry
1. Cn1cc(-c2cnc(N)c(C(=O)N[C@@H]3CCN(C(=O)Nc4ccc(C(F)(F)F)cc4)C3)c2)cn1 [Example 6]
2. CN1CCCC1CCOc1ccc2cc(C(=O)N3CC[C@@H](NC(=O)c4cc(-c5cnn(C)c5)cnc4N)C3)ccc2c1 (stereo partly shown) [Example 764]
3. Cn1cc(-c2cnc(N)c(C(=O)N[C@@H]3CCN(Cc4ccccc4-c4ccccc4)C3)c2)cn1 [Example 225]
4. Cn1cc(-c2cnc(N)c(C(=O)N[C@@H]3CCN(C(=O)Oc4cccc5ccccc45)C3)c2)cn1 [Example 68]
5. Cc1nn(C)cc1-c1cccc(C(=O)N2CC[C@@H](NC(=O)c3cc(-c4cnn(C)c4)cnc3N)C2)c1 [Example 469]
6. COCCn1cc(-c2cnc(N)c(C(=O)N[C@@H]3CCN(C(=O)c4ccc(-c5ccccc5Cl)cc4)C3)c2)cn1 [Example 573]
7. Nc1ncc(-c2cnn(C3CCNCC3)c2)cc1C(=O)N[C@@H]1CCN(Cc2ccc(F)c(F)c2)C1 [Example 160]

< 6.00
6.00 to 7.00
6.00 to 7.00
< 6.00
< 6.00
7.00 to 8.00
< 6.00

# batch size: 2; output pIC50 per entry
1. Cn1cc(-c2cnc(N)c(C(=O)N[C@@H]3CCN(Cc4cc(Cl)cc(Cl)c4)C3)c2)cn1 [Example 224]
2. Cn1cc(-c2cnc(N)c(C(=O)N[C@@H]3CCN(C(=O)Oc4ccc(Oc5ccc([N+](=O)[O-])cc5)cc4)C3)c2)cn1 [Example 111]

< 6.00
< 6.00

# batch size: 7; output pIC50 per entry
1. Cn1cc(-c2cnc(N)c(C(=O)N[C@@H]3CCN(C(=O)Oc4cc([N+](=O)[O-])ccc4N)C3)c2)cn1 [Example 100]
2. CN(C)c1ccc(NC(=S)N2CC[C@@H](NC(=O)c3cc(-c4cnn(C)c4)cnc3N)C2)cc1 [Example 48]
3. Cn1cc(-c2cnc(N)c(C(=O)N[C@@H]3CCN(C(=O)N[C@@H]4CCCC[C@@H]4O)C3)c2)cn1 [Example 31]
4. Cn1cc(-c2cnc(N)c(C(=O)N[C@@H]3CCN(C(=O)c4cc5cc(F)ccc5[nH]4)C3)c2)cn1 [Example 696]
5. CN1CCC(NCc2ccc(-c3cccc(OC(=O)N4CC[C@@H](NC(=O)c5cc(-c6cnn(C)c6)cnc5N)C4)c3)cc2)CC1 [Example 318]
6. Nc1ncc(-c2cnn(C3CCNCC3)c2)cc1C(=O)NC1CCN(Cc2ccccc2)C1 (stereo not shown) [Example 152]
7. Cn1cc(-c2cnc(N)c(C(=O)N[C@@H]3CCN(C(=O)c4ccc(-c5ccc(N)cc5)cc4)C3)c2)cn1 [Example 662]

1: < 6.00; 2: < 6.00; 3: < 6.00; 4: < 6.00; 5: 6.00 to 7.00; 6: 6.00 to 7.00; 7: < 6.00

# batch size: 4; output pIC50 per entry
1. Cn1cc(-c2cnc(N)c(C(=O)N[C@@H]3CCN(C(=O)c4ccc(-c5ccc(C=O)cc5)cc4)C3)c2)cn1 [Example 381]
2. CCc1cnc(N2CC[C@@H](NC(=O)c3cc(-c4cnn(C)c4)cnc3N)C2)nc1 [Example 136]
3. CC(=O)Nc1ccc(-c2cnc(N)c(C(=O)N[C@@H]3CCN(C(=O)c4ccc(-c5ccc(F)cc5Cl)cc4)C3)c2)cn1 [Example 582]
4. Cn1cc(-c2cnc(N)c(C(=O)N[C@@H]3CCN(C(=O)c4ccc(-c5ccc(C(=O)N6CCC(=O)CC6)cc5)cc4)C3)c2)cn1 [Example 679]

1. 6.00 to 7.00
2. < 6.00
3. 6.00 to 7.00
4. < 6.00

GET pIC50 | system: human MER (528-end) (Homo sapiens (Human), UniProt Q12866) | item: Cn1cc(-c2cnc(N)c(C(=O)N[C@@H]3CCN(C(=O)Oc4ccc5ccccc5c4N)C3)c2)cn1 [Example 69] 6.00 to 7.00
